- measuredOn: Glucose transporter (Leishmania mexicana) (UniProt O61059)
- measurementNotes: ST_JUDE_LEISH: Cytotoxicity at 2uM final concentration against transgenic Leishmania Mexicana promastigotes LmGT2 that are glucose transport deficient and complemented with the L. Mexicana glucose transporter 2. Activity is measured by DNA content using SYBR green in vitro
- Format: functional
I'd be grateful if you could share measured inhibition for these entries.
Give bare numbers, in %.

// below: answered compounds
O=C(NC1CCC(CN2CCC(c3c[nH]c4ccccc34)CC2)CC1)c1cc(-c2ccccc2Cl)n(-c2cccc(Cl)c2)n1 (centres undefined)
1.71
Cc1ccc(CC(C)NCC(O)c2cccc(C(F)(F)F)c2)c(C)c1 (centres undefined)
0.75
CC(Cc1ccc(Oc2ccc(Cl)cc2)cc1)NCC(O)c1cccc(Cl)c1 (centres undefined)
-1.74

I have 6 compounds here; please give me inhibition for each one.
1. CCCCCCCc1cc(O)c2c(c1)OC(C)(C)c1ccncc1-2
2. CS(=O)(=O)Nc1ccc2[nH]cc(C3CC4CCC(C3)N4CC3CCC(NC(=O)/C=C/c4ccc(Cl)c(Cl)c4)CC3)c2c1 (centres undefined)
3. CC[C@H]1CN2CC[C@H]1C[C@H]2C(O)c1cc(OC)nc2ccccc12 (some centres undefined)
4. COc1cc(C=CC(=O)N2CCC(CN3CCC(c4c[nH]c5ccccc45)CC3)CC2)ccc1O
5. CC(Cc1ccc(C2=CCNCC2)cc1)NCC(O)c1cccc(C(F)(F)F)c1 (centres undefined)
6. Cc1ccc2c(C3=CCN(CCCCC4(C)C(=O)Nc5c(F)cccc54)CC3)c(C)[nH]c2c1 (centres undefined)

1. 1.72
2. 5.09
3. -0.23
4. 6.97
5. -0.93
6. 1.63

====

- measuredOn: Glucose transporter (Leishmania mexicana) (UniProt O61059)
- measurementNotes: ST_JUDE_LEISH: Cytotoxicity at 2uM final concentration against transgenic Leishmania Mexicana promastigotes LmGT2 that are glucose transport deficient and complemented with the L. Mexicana glucose transporter 2. Activity is measured by DNA content using SYBR green in vitro
- Format: functional
reportedProperty: inhibition (%)
Give bare numbers, in %.

// below: answered compounds
CCCCCc1cc(O)c2c(c1)OC(C)(C)CC2C1=CCN(Cc2cnc3ccccc3c2)CC1 (stereo not drawn)
0.64
COc1cc(NC(=O)c2nn(CCCN3CCC4(CC3)C(=O)NCN4c3ccccc3)cc2-c2ccc(Cl)c(Cl)c2)cc(OC)c1OC
0.13
COc1cccc(CN2CCC(CCOC(c3ccccc3)c3ccccc3)CC2)c1O
-0.42
CC[C@H]1CN2CC[C@H]1C[C@H]2[C@H](O)c1cc(N2CCCC(C(=O)N(CC)CC)C2)nc2ccc(OC)cc12 (stereo partly drawn)
0.33
CC(=O)C1(c2ccccc2)CCN(CCC2(c3ccc(Cl)c(Cl)c3)CN(C(=O)C3CCCCC3)CCO2)CC1 (stereo not drawn)
3.92

I have 3 compounds here; please give me inhibition for each one.
1. O=C(NCCC1CCN(CCc2c[nH]c3ccccc23)CC1)Nc1ccc(Cl)c(Cl)c1
2. CNC(=O)c1ccc2[nH]cc(C3CCN(CC4CCC(NC(=O)/C=C/c5ccc(Cl)c(Cl)c5)CC4)CC3)c2c1 (stereo not drawn)
3. COCCNCc1cccc(-c2ccccc2CN(C(=O)Nc2ccccc2)C2CCN(Cc3ccccc3)CC2)c1

1: 3; 2: 4.82; 3: 4.23

====

- measuredOn: Solute carrier family 2, facilitated glucose transporter member 1 (Homo sapiens) (UniProt P11166)
- Sequence (P11166 whole entry): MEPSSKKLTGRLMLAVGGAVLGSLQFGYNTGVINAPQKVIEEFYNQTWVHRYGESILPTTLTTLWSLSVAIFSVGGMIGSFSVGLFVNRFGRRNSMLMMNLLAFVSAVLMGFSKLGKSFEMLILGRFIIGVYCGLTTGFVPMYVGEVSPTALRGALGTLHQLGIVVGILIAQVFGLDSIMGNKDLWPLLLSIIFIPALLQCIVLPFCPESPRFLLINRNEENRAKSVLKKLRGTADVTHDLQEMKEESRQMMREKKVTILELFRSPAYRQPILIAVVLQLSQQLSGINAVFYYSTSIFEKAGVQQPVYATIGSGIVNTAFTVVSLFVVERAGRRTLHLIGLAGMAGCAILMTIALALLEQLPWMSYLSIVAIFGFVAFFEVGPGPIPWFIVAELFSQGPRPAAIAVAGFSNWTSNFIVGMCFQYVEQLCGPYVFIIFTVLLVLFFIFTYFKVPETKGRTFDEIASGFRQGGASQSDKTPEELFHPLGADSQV
- measurementNotes: ST_JUDE_LEISH: Cytotoxicity at 2uM final concentration against transgenic Leishmania Mexicana promastigotes LmGLUT1 that are glucose transport deficient and complemented with the human glucose transporter GLUT1. Activity is measured by DNA content using SYBR green in vitro
- Format: functional
I'd be grateful if you could share measured inhibition for these entries.
Give bare numbers, in %.

O=C(/C=C/c1ccc(Cl)c(Cl)c1)N1CCC(CN2CCC(c3c[nH]c4cc5c(cc34)OCO5)CC2)CC1
5.54

I have 7 compounds here; please give me inhibition for each one.
1. COC(=O)c1ccc(CC(C)NCC(O)c2cccc(OCc3ccccc3)c2)cc1 (stereo not drawn)
2. CC[C@H]1CN2CC[C@@H]1C[C@H]2[C@H](O)c1cc(N2CCC(C(N)=O)CC2)nc2ccc(OC)cc12
3. O=C(/C=C/c1cccs1)NC1CCC(CN2CCC(c3c[nH]c4ccccc34)CC2)CC1 (stereo not drawn)
4. CC[C@H]1CN2CC[C@H]1C[C@H]2[C@H](O)c1cc(-c2cccc(F)c2)nc2ccc(OC)cc12
5. O=C(/C=C/c1ccc(Cl)c(Cl)c1)NC1C2CCC1CC(CN1CCC(c3c[nH]c4ccccc34)CC1)C2 (stereo not drawn)
6. O=C1COc2ccccc2N1CCN1CCC(NCc2ccc(-c3cccs3)cc2)CC1
7. COC(=O)c1ccc(CC(C)NCC(O)c2cccc(OC(F)(F)F)c2)cc1 (stereo not drawn)

[7.34, 8.84, 4.14, 8.98, 3.31, 8.28, 0.35]

I have 5 compounds here; please give me inhibition for each one.
1. CCCCCc1cc(O)c2c(c1)OC(C)(C)CC2C1=CCN(Cc2ccccc2)CC1 (stereo not drawn)
2. Oc1ccc(Cl)cc1CN1CCC(CCOC(c2ccccc2)c2ccc(Cl)cc2)CC1 (stereo not drawn)
3. O=C(/C=C/c1ccc(Cl)c(Cl)c1)NCCCCCN1C2CCC1CC(c1c[nH]c3ccccc13)C2 (stereo not drawn)
4. O=C(NC1CCN(CC2(c3ccc(Cl)cc3)CCC2)CC1)c1cc[nH]n1
5. CC(=O)C1(c2ccccc2)CCN(CCC2(c3ccc(Cl)c(Cl)c3)CN(C(=O)c3cccc(Cl)c3)CCO2)CC1 (stereo not drawn)

2.07
46.7
0.42
1.71
-0.25

I have 2 compounds here; please give me inhibition for each one.
1. O=C(NC1CCC(CN2CCC(c3c[nH]c4ccccc34)CC2)CC1)c1cc(-c2ccccc2Cl)oc1C(F)(F)F (stereo not drawn)
2. O=C(/C=C/c1ccc(Cl)cc1Cl)NC1CCC(CN2CCC(c3c[nH]c4ccccc34)CC2)CC1 (stereo not drawn)

[0.8, 10.9]

I have 3 compounds here; please give me inhibition for each one.
1. CC[C@H]1CN2CC[C@H]1C[C@H]2[C@H](O)c1cc(N2CCCC2)nc2ccc(OC)cc12
2. O=C(/C=C/c1ccccc1Cl)NC1CCC(CN2C3CCC2CC(c2c[nH]c4ccccc24)C3)CC1 (stereo not drawn)
3. COc1cccc(C2(NC[C@@H](O)[C@H](Cc3ccccc3)NC(=O)c3ccccc3)CCCCC2)c1

[-0.2, 2.84, 0.07]

Origin of measurements: ChEMBL document CHEMBL3433997
